test-target: panel of 255 wild-type kinases (Homo sapiens, UniProt O14578)
Sequence (O14578 whole entry): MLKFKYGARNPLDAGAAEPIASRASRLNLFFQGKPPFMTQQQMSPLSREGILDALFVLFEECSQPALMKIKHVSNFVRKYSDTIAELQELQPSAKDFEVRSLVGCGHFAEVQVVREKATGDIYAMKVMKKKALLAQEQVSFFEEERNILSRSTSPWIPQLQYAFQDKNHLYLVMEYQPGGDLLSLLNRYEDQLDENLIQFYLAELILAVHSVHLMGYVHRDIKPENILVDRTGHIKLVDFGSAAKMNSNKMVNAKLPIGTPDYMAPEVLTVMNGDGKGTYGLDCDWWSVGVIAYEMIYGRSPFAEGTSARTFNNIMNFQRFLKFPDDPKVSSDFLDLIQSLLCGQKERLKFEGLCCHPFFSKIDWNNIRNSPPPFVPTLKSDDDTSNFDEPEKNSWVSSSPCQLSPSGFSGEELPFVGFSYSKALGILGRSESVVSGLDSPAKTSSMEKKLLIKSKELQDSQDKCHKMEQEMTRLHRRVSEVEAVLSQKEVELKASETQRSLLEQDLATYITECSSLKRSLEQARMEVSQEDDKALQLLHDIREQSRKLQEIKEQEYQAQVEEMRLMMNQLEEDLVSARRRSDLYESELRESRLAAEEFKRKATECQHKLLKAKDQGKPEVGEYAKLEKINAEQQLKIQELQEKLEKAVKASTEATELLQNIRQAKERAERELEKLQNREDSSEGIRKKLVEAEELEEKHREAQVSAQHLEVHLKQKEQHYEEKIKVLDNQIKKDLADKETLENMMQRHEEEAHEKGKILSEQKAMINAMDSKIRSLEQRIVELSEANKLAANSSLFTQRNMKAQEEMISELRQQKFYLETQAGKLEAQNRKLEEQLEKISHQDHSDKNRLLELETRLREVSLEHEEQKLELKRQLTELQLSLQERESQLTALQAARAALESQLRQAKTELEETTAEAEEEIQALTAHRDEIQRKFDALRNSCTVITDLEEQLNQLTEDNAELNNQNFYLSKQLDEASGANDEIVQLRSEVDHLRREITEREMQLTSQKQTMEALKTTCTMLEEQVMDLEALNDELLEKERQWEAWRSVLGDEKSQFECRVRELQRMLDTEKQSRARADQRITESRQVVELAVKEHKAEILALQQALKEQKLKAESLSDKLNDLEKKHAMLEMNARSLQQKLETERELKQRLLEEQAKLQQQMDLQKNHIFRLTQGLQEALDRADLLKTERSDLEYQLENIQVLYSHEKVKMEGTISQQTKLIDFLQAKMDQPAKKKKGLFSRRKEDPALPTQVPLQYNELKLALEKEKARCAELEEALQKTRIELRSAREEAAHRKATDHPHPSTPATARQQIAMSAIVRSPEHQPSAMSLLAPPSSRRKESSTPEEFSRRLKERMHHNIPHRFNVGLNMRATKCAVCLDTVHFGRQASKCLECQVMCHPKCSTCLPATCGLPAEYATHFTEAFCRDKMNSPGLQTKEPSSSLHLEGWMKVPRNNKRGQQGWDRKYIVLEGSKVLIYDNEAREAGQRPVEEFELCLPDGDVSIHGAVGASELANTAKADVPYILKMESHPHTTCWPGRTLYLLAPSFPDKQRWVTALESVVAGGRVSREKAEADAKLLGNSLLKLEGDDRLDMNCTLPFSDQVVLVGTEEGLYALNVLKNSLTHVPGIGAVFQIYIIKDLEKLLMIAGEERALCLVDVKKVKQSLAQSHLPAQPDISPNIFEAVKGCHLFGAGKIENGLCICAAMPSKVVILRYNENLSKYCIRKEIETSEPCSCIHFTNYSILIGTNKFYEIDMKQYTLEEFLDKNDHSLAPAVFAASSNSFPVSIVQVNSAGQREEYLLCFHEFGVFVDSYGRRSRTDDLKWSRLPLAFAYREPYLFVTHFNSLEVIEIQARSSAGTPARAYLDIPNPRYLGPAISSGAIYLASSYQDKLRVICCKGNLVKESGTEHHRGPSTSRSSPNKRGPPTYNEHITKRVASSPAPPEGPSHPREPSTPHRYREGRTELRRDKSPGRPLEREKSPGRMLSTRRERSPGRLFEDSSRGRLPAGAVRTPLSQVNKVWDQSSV
test-method-notes: Kinase panel profiling at 1 µmol/L (MSA or IMAP), percentage inhibition
Format: biochemical
conditions: kinase CRIK; 1 µmol/L single concentration; read-out: %-inhibition at 1 µmol/L, CRIK
quantity: inhibition at 1 µM (%)

• COc1cc2ncnc(Nc3ccc(F)c(Cl)c3)c2cc1NC(=O)/C=C/CN1CCCCC1 = 32
• O=C(Nc1cnn2ccc(N3CCC[C@@H]3c3cc(F)ccc3F)nc12)N1CC[C@H](O)C1 = -4.22
• CCn1c(=O)c(-c2cc(NC(=O)Nc3ccccc3)c(F)cc2Br)cc2cnc(NC)cc21 = 20
• Cn1cnc2c(F)c(Nc3ccc(Br)cc3Cl)c(C(=O)NOCCO)cc21 = -2.33
• C[C@H](Nc1ncnc2nc[nH]c12)c1cc2cccc(Cl)c2c(=O)n1-c1ccccc1 = -3.16
• CCc1nc(C(N)=O)c(Nc2ccc(N3CCC(N4CCN(C)CC4)CC3)c(OC)c2)nc1NC1CCOCC1 = 75
• COc1ccc(CN2C3CC2CN(c2ccc(-c4cc(OCC(C)(C)O)cn5ncc(C#N)c45)cn2)C3)cn1 = -4.75
• Cc1nc(NC(=O)N2CCC[C@H]2C(N)=O)sc1-c1ccnc(C(C)(C)C(F)(F)F)c1 = -5.56
• CN1CCN(c2ccc(C(=O)Nc3n[nH]c4ccc(Cc5cc(F)cc(F)c5)cc34)c(NC3CCOCC3)c2)CC1 = -9
• Cn1cnc2c(F)c(Nc3ccc(Br)cc3F)c(C(=O)NOCCO)cc21 = -3.44
• COC(=O)N[C@@H](C)CNc1nccc(-c2cn(C(C)C)nc2-c2cc(Cl)cc(NS(C)(=O)=O)c2F)n1 = 2.72
• C=CC(=O)N1CCC([C@@H]2CCNc3c(C(N)=O)c(-c4ccc(Oc5ccccc5)cc4)nn32)CC1 = -2.4
• Cn1cc(-c2cc3c(N4CCN(c5ncc([C@@](C)(N)c6ccc(F)cc6)cn5)CC4)ncnn3c2)cn1 = -0.548
• FC(F)(F)c1ccc(CNc2ccc(Cc3c[nH]c4ncc(Cl)cc34)cn2)cn1 = -1.09
• CCN1CCN(c2ccc(Nc3cc(N(C)C(=O)Nc4c(Cl)c(OC)cc(OC)c4Cl)ncn3)cc2)CC1 = -2.56
• Cc1cc(Nc2ncnc3ccc(NC4=NC(C)(C)CO4)cc23)ccc1Oc1ccn2ncnc2c1 = -2.49

Source: paper PMC9516332
